Values compiled from ChEMBL document CHEMBL3885861.

Task for the reader: assign each of the following molecules its reported Hb.
species on record: Rattus norvegicus; experiment: Open TG-GATES - Regimen: Daily Repeat; type: toxicity, organism-based, Sprague-Dawley; set-up: regimen Daily Repeat, gender Male, age 6 weeks; conditions: in vivo, po, 1000 mg/kg, […], tissue Blood, route gavage, dose level High, time 7 day
Numbers only, in g/dL.

- Molecule: "CC(S)C(=O)NCC(=O)O (centres undefined)"
  Hb, g/dL: 13.4
- Molecule: "CC(=O)[C@@]1(O)CC[C@H]2[C@@H]3C=C(Cl)C4=CC(=O)CC[C@]4(C)[C@H]3CC[C@@]21C"
  Hb, g/dL: 15.1
- Molecule: "CCCCNC(=O)NS(=O)(=O)c1ccc(C)cc1 [TOLBUTAMIDE]"
  Hb, g/dL: 13.7

// next entry
Given the molecule O=C(O)c1ccccc1Nc1ccccc1 , what is its reported Hb?
12.6

###

species on record: Rattus norvegicus; experiment: Open TG-GATES - Regimen: Daily Repeat; assay type: toxicity, organism-based, Sprague-Dawley; set-up: regimen Daily Repeat, gender Male, age 6 weeks; details: in vivo, po, 100 mg/kg, […], tissue Plasma, route gavage, dose level Low, time 28 day
Observed property: RALB (g/dL)
One number for each entry, in g/dL.

Examples from the recorded data:
- Compound: "CC(=O)[C@@]1(O)CC[C@H]2[C@@H]3C=C(Cl)C4=CC(=O)CC[C@]4(C)[C@H]3CC[C@@]21C"
  Unit of measurement: "g/dL"
  RALB: 3.1
- Compound: "O=C(O)c1ccccc1Nc1ccccc1"
  Unit of measurement: "g/dL"
  RALB: 2.8
- Compound: "CCCCNC(=O)NS(=O)(=O)c1ccc(C)cc1 [TOLBUTAMIDE]"
  Unit of measurement: "g/dL"
  RALB: 2.7

// next entry
Given the compound CC(S)C(=O)NCC(=O)O (centres undefined) , what is its reported RALB?
3.2

###

organism: Rattus norvegicus; assay: Open TG-GATES - Regimen: Daily Repeat; type: toxicity, organism-based, Sprague-Dawley; set-up: regimen Daily Repeat, gender Male, age 6 weeks; conditions: in vivo, po, 100 mg/kg, […], tissue Blood, route gavage, dose level Low, time 14 day
Task for the reader: assign each of the following molecules its reported APTT.
Answers are plain numbers, in s.

Examples from the recorded data:
- Molecule: "O=C(O)c1ccccc1Nc1ccccc1"
  Observed property: "APTT"
  Obs value: 16.8
- Molecule: "CC(S)C(=O)NCC(=O)O (centres undefined)"
  Observed property: "APTT"
  Obs value: 24.5
- Molecule: "CCCCNC(=O)NS(=O)(=O)c1ccc(C)cc1 [TOLBUTAMIDE]"
  Observed property: "APTT"
  Obs value: 18.6

// next entry
Given the molecule CC(=O)[C@@]1(O)CC[C@H]2[C@@H]3C=C(Cl)C4=CC(=O)CC[C@]4(C)[C@H]3CC[C@@]21C , what is its reported APTT?
27.9

###

species on record: Rattus norvegicus; assay: Open TG-GATES - Regimen: Daily Repeat; assay type: toxicity, organism-based, Sprague-Dawley; design: regimen Daily Repeat, gender Male, age 6 weeks; details: in vivo, po, 300 mg/kg, […], tissue Blood, route gavage, dose level Middle, time 14 day
Observed property: Lym (%)
Answers are plain numbers, in %.

Need Lym for each of these molecules.
1. O=C(O)c1ccccc1Nc1ccccc1
2. CC(S)C(=O)NCC(=O)O (centres undefined)
3. CCCCNC(=O)NS(=O)(=O)c1ccc(C)cc1 [TOLBUTAMIDE]
4. CC(=O)[C@@]1(O)CC[C@H]2[C@@H]3C=C(Cl)C4=CC(=O)CC[C@]4(C)[C@H]3CC[C@@]21C

79.8
83
78.2
78
